System: HeLa cells
Test: Cell death dose response (CellTox green, IncuCyte)
Type: cell-based
Conditions: IncuCyte, 0-20 μM
measurement-name: Effect on cell death

• [H]/N=C(\N)NN=Cc1ccc(Cl)c(F)c1 [Compound 8] = Yes
• [H]/N=C(\N)NN=Cc1cccc(F)c1Cl [Compound 25] = No
• [H]/N=C(\N)NN=Cc1cccc(Cl)c1 [Compound 24] = No
• [H]/N=C(\N)NN=Cc1cc(F)c(F)cc1Cl [Compound 32] = No
• N=C(N)N/N=C/c1cc(Cl)c(Cl)cc1F [Compound 18] = Yes
• [H]/N=C(\N)NN=Cc1cc(F)ccc1Cl [Compound 20] = Yes

====

Biological target: PPP1R15B-PP1 (Homo sapiens, UniProt Q5SWA1)
Construct: cDNAs encoding amino acids 325-636 of PPP1R15A and 340-698 of PPP1R15B were His-tagged and cloned into pMAL-c5x; made in house; host or cells: R15B: E. coli BL21-Gold (pMAL-c5x); PP1γ: Sf9 insect cells (baculovirus, pDW464)
Sequence (Q5SWA1 340-698): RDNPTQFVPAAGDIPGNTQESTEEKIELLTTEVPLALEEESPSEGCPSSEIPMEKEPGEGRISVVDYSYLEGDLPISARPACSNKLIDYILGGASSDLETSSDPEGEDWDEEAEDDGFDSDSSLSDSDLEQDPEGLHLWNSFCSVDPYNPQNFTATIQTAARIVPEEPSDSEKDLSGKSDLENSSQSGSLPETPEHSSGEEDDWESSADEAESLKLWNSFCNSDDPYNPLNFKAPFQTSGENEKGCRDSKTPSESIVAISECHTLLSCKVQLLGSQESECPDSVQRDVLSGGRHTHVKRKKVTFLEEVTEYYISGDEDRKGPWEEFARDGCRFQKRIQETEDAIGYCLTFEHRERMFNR
Sequence (P36873 whole entry partner, the tested form may be a part): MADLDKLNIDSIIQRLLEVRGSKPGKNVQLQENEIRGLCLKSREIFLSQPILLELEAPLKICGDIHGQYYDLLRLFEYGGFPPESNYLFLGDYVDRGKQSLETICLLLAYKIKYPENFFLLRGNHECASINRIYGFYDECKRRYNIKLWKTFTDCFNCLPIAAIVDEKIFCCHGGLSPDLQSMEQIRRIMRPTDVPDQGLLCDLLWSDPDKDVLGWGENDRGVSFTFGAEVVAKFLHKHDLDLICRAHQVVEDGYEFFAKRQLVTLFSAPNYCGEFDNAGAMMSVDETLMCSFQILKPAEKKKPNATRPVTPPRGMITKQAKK
Assay: SPR steady-state binding to R15B-PP1 holophosphatase
Details: SPR, FIG. 1; read-out: KD for PPP1R15B-PP1
measurement-name: Kd

• [H]/N=C(\N)NN=Cc1cccc(Cl)c1Cl = 35 nM

====

Tested on: HeLa cells
Test: Cell death dose response (CellTox green, IncuCyte)
Assay type: cell-based
Conditions: IncuCyte, 0-20 μM
measurement-name: Effect on cell death

• [H]/N=C(\N)NN=Cc1cc(F)cc(F)c1Cl [Compound 29] = No
• [H]/N=C(\N)NN=Cc1ccc(Cl)c(Cl)c1 [Compound 11] = Yes
• [H]/N=C(\N)NN=Cc1cc(Cl)cc(Cl)c1 [Compound 34] = No
• [H]/N=C(\N)NN=Cc1cc(Cl)ccc1Cl [Compound 26] = No
• [H]/N=C(\N)NN=Cc1cccc(F)c1 [Compound 23] = No
• [H]/N=C(\N)NN=Cc1c(Cl)ccc(Cl)c1Cl [Compound 31] = No
• [H]/N=C(\N)NN=Cc1ccc(Cl)c(Cl)c1Cl [Compound 6] = Yes

====

Tested on: HeLa cells
Assay: Cytoprotection against ER stress (tunicamycin), IncuCyte
Assay type: cell-based
Details: Homo sapiens, 250 ng/ml Tunicamycin, 72 hours, compound 0-20 μM, read-out: Cytoprotection from Tm (compared to GNB)
Class key for Emax values: L (below 50%), M (50% to below 60%), H (60% or more)

- [H]/N=C(\N)NN=Cc1cccc(F)c1: M
- [H]/N=C(\N)NN=Cc1ccc(Cl)c(F)c1: L
- N=C(N)N/N=C/c1cc(Cl)c(Cl)cc1F: M
- [H]/N=C(\N)NN=Cc1cc(F)cc(F)c1Cl: H
- [H]/N=C(\N)NN=Cc1cccc(Cl)c1: H
- N=C(N)N/N=C/c1cc(Cl)c(Cl)c(Cl)c1: M
- [H]/N=C(\N)NN=Cc1ccc(F)c(F)c1Cl: M
- [H]/N=C(\N)NN=Cc1cccc(Cl)c1Cl: H
- [H]/N=C(\N)NN=Cc1ccc(Cl)c(Cl)c1: L
- [H]/N=C(\N)NN=Cc1cc(Cl)ccc1Cl: M
- [H]/N=C(\N)NN=Cc1ccc(Cl)nc1Cl: L
- [H]/N=C(\N)NN=Cc1cnc(Cl)nc1Cl: L
- [H]/N=C(\N)NN=Cc1ccccc1F: H
- [H]/N=C(\N)NN=Cc1ccc(F)c(Cl)c1Cl: H
- N=C(N)N/N=C/c1cc(Cl)c(Cl)cc1Cl: H
- [H]/N=C(\N)NN=Cc1cc(Cl)c(F)c(Cl)c1: L
- [H]/N=C(\N)NN=Cc1cc(F)ccc1Cl: H
- [H]/N=C(\N)NN=Cc1cccnc1Cl: L
